Origin of the recorded values: PubChem BioAssay AID651581

biological target: Hypoxia-inducible factor 1-alpha (Homo sapiens); assay: HIF-2a and HIF-1a reporter inhibition panel, dose response, selectivity assay for HIF-2a inhibitor project, cell-based, luminescence (AID 651581); settings: HIF-1a, run 2
result-type: IC50 (µM)
Provide only the numeric value, understood in µM.

Bench note, Hypoxia-inducible factor 1-alpha (Homo sapiens): entry CC(=O)Nc1ccc(NC(=O)c2c([N+](=O)[O-])c(C(C)(C)C)nn2C)cc1 , its IC50 = 22.8

Bench note, Hypoxia-inducible factor 1-alpha (Homo sapiens): entry COc1ccccc1C(C[N+](=O)[O-])c1c(N)n(C)c(=O)n(C)c1=O (stereo unspecified) , its IC50 = 16.9

Bench note, Hypoxia-inducible factor 1-alpha (Homo sapiens): entry Cc1c(CCC(=O)NCCC(=O)O)c(=O)oc2c(C)c3oc4c(c3cc12)CCCC4 , its IC50 = 14.5

Bench note, Hypoxia-inducible factor 1-alpha (Homo sapiens): entry CCOC(=O)Cc1csc(NC(=S)NC(=O)c2ccccc2C)n1 , its IC50 = 37.2

Bench note, Hypoxia-inducible factor 1-alpha (Homo sapiens): entry CC(=O)c1ccc(NC(=O)c2cnn3ccccc23)cc1 , its IC50 = 20.6

Bench note, Hypoxia-inducible factor 1-alpha (Homo sapiens): entry CCOC(=O)c1ccc(Oc2nc(NC(C)(C)C)nc(N(C)C)n2)cc1 , its IC50 = 31.4

Bench note, Hypoxia-inducible factor 1-alpha (Homo sapiens): entry COc1ccc2nc(-c3ccc(N)cc3)[nH]c2c1 , its IC50 = 44.2
